Test system: S. cerevisiae INVSc1 cells
Test description: Cd2+ dose-response growth of TaPCS1-expressing and control yeast cells
Format: cell-based
Cond: control cells with empty pYES2; YNB 1% sucrose/1% galactose, OD600 after 24 hours; read-out: K0.5 for growth

{"Compound": "[Cl][Cd][Cl] [Cd^2+, CdCl2]", "Units of measure": "µM", "IC50": 6}
